Entry source: the supplement of paper PMC6555819

tested on: LXRa homodimer (NR concentration 270 nM); assay: PBM binding z-score (relative to random genomic background probes); higher = stronger binding; sequences stand for … in GC…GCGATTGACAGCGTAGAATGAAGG
Some sequences, each annotated with its measured PBM binding z-score.
Please respond with just the number, no unit label.

Ask: What PBM binding z-score value was documented for this sequence, `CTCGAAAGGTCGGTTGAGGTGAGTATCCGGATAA` ?
Reply: -0.338

Others:
Ask: So what does the record say about PBM binding z-score for `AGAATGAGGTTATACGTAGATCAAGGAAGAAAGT` ?
Reply: 0.0848

Ask: What value of PBM binding z-score has been recorded for this entry: `TGTCAAAGTTCAAAGGTAACGTATGTATCCACAC`
Reply: 4.88

Ask: Would you kindly share the measured PBM binding z-score for `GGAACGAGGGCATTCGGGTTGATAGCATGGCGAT` ?
Reply: -0.291

Ask: Quick check: PBM binding z-score of `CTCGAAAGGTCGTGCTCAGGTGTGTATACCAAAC` ?
Reply: 0.295

Ask: Can you look up the measured PBM binding z-score of `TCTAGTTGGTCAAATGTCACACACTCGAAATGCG` for me?
Reply: 0.736

Ask: Requested field: PBM binding z-score. Item: `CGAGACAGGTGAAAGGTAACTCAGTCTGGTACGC`
Reply: -0.513

Ask: Name the recorded PBM binding z-score for `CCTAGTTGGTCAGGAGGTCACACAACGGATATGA` .
Reply: 1.69

Ask: Item under review: `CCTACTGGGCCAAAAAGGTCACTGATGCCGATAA` . Reported PBM binding z-score?
Reply: 1.36

Ask: Tell me the measured PBM binding z-score of `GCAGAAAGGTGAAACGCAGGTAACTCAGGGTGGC` , please.
Reply: -0.633

Ask: Would you kindly share the measured PBM binding z-score for `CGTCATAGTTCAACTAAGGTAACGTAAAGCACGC` ?
Reply: 1.02

Ask: Item under review: `CCTTACGGGGCACGAGGTTATAGCACGACGAGCG` . Reported PBM binding z-score?
Reply: -0.304

###

system: PPARg:RXRa (NR concentration 180 nM, RXRa partner concentration 90 nM); experiment: PBM binding z-score (relative to random genomic background probes); higher = stronger binding; sequences stand for … in GC…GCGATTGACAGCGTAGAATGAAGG
Item-by-item account of PBM binding z-score
Please give only the number in your answer, with no unit.

These solved cases illustrate the format of a correct answer.
Ask: If you can, please state the reported PBM binding z-score value of `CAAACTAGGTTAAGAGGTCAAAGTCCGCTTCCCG` .
Reply: 7.84

Ask: Item `ATCTCTAGGTACAAGTTCAGTGAATCCCGAGGAT` has what recorded PBM binding z-score?
Reply: 3.28

Ask: // PBM binding z-score lookup, key: `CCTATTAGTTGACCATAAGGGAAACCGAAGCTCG`
Reply: 0.419

Others:
Ask: Fill in the blank: the reported PBM binding z-score of `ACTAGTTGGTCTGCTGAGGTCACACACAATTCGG` is ____.
Reply: 1.35

Ask: Which measured PBM binding z-score value corresponds to `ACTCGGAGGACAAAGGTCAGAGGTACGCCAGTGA` ?
Reply: 7.26

Ask: Look up PBM binding z-score for this sequence: `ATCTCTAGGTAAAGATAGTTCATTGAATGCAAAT`
Reply: 1.11

Ask: Would you kindly share the measured PBM binding z-score for `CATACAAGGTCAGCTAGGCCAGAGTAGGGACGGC` ?
Reply: 3.65

Ask: I would be grateful if you could share the reported PBM binding z-score for `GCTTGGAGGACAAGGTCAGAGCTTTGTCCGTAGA` .
Reply: 0.977

Ask: What does the data say about its PBM binding z-score? Entry: `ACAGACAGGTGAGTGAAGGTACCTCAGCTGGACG`
Reply: 0.476

Ask: What PBM binding z-score value was documented for this sequence, `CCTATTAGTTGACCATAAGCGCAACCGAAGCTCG` ?
Reply: 0.326

Ask: Could you tell me which PBM binding z-score is on file for `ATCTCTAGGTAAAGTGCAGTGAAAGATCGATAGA` ?
Reply: 0.843

Ask: Entry under review: `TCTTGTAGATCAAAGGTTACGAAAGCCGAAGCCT` . Reported PBM binding z-score?
Reply: 8.72

###

test system: PPARg:RXRa 270nM:90nM, anti-RXR (NR concentration 270 nM, RXRa partner concentration 90 nM); assay: PBM binding z-score (relative to random genomic background probes); higher = stronger binding; sequences stand for … in GC…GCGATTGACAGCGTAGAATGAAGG
Consider the following sequences and their measured PBM binding z-score readings.
Returns: the value as a bare number; no unit string appended.

Ask: PBM binding z-score for `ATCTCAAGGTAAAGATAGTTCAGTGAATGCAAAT` ?
Reply: 0.508

Continuing:
Ask: Recorded PBM binding z-score for `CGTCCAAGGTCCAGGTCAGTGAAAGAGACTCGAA` , please?
Reply: 0.162

Ask: Requested read-out: PBM binding z-score. Entry: `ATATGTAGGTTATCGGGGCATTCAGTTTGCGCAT`
Reply: 5

Ask: Entry `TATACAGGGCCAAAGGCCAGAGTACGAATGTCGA` has what PBM binding z-score?
Reply: 4.61

Ask: What value of PBM binding z-score has been recorded for this entry: `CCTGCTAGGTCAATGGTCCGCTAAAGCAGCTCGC`
Reply: 2.94

Ask: # input sequence: `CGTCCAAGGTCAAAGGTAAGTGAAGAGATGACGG` ; wanted: its PBM binding z-score
Reply: 7

Ask: Which PBM binding z-score value belongs to `ATCGAAAGGTCGACGTGAGTATAGAGAAAGGGAA` ?
Reply: 2.9

Ask: Field request: PBM binding z-score | item: `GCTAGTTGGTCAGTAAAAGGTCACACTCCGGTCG`
Reply: 4.24

Ask: Which PBM binding z-score value belongs to `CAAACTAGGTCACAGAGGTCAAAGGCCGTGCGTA` ?
Reply: 8.37

Ask: Requested field: PBM binding z-score. Item: `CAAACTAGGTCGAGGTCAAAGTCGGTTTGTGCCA`
Reply: 6.53

Ask: // lookup PBM binding z-score for `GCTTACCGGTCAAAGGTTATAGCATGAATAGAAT`
Reply: 7.56

Ask: Which measured PBM binding z-score value corresponds to `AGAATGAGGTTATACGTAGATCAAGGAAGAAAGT` ?
Reply: 2.12

###

tested on: VDR homodimer (NR concentration 270 nM); assay: PBM binding z-score (relative to random genomic background probes); higher = stronger binding; sequences stand for … in GC…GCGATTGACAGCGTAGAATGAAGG
Reported metric: PBM binding z-score
Give the value as a plain number.

Ask: Field: PBM binding z-score (VDR homodimer (NR concentration 270 nM)). Entry: `CCTTACGCGTCACTCCAGGTTATAGCATCGGAGT`
Reply: 0.782

Ask: Please tell me: PBM binding z-score of `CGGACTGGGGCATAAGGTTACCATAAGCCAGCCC` , system VDR homodimer (NR concentration 270 nM)?
Reply: -0.454

Ask: Field: PBM binding z-score (VDR homodimer (NR concentration 270 nM)). Entry: `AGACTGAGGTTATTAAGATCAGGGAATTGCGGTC`
Reply: 0.749

---
Ask: VDR homodimer (NR concentration 270 nM) / PBM binding z-score / `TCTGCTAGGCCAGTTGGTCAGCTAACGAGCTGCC` : value?
Reply: -1.5

Ask: # query: PBM binding z-score | item `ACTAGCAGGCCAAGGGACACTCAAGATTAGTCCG` | system: VDR homodimer (NR concentration 270 nM)
Reply: -0.433

Ask: Report PBM binding z-score for `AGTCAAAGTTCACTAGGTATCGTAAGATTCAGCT` tested on VDR homodimer (NR concentration 270 nM).
Reply: 4.12

Ask: Give PBM binding z-score (VDR homodimer (NR concentration 270 nM)) of the following sequence: `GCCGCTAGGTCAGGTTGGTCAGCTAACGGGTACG`
Reply: 0.312

Ask: Field: PBM binding z-score (VDR homodimer (NR concentration 270 nM)). Entry: `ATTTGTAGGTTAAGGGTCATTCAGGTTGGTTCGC`
Reply: 5.33

Ask: GET /values?readout=PBM binding z-score&system=VDR homodimer (NR concentration 270 nM)&item= `GCTTCTAGATCAAGGTTAAGAAAGACTAAGCTAA`
Reply: -0.36

Ask: State its PBM binding z-score on VDR homodimer (NR concentration 270 nM): `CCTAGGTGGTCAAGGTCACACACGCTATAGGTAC`
Reply: 3.06

Ask: Give PBM binding z-score (VDR homodimer (NR concentration 270 nM)) of the following sequence: `CCTACTGGGCCAAAAAGGTCATTTATGCCGATAA`
Reply: 2.46

Ask: Given the entry `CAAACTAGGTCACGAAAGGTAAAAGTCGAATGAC` , what PBM binding z-score was observed with VDR homodimer (NR concentration 270 nM)?
Reply: 0.85

Ask: I'm curious: which PBM binding z-score was measured for `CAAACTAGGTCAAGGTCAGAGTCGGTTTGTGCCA` tested on VDR homodimer (NR concentration 270 nM)?
Reply: 2.79

Ask: Kindly state the measured PBM binding z-score obtained for `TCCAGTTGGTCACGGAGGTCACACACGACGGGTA` with VDR homodimer (NR concentration 270 nM).
Reply: 2.65

Ask: GET /values?readout=PBM binding z-score&system=VDR homodimer (NR concentration 270 nM)&item= `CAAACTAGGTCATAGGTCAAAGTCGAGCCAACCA`
Reply: 1.92

Ask: Return PBM binding z-score measured with VDR homodimer (NR concentration 270 nM) given this sequence: `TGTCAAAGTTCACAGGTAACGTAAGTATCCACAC`
Reply: 3.53

Ask: Hello, I am looking for reported PBM binding z-score with VDR homodimer (NR concentration 270 nM) for `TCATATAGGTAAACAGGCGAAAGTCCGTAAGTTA` . Could you help?
Reply: 0.216

Ask: Query the reported PBM binding z-score for VDR homodimer (NR concentration 270 nM); item: `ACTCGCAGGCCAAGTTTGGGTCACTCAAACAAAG`
Reply: 0.548

Ask: Test system VDR homodimer (NR concentration 270 nM); read-out PBM binding z-score; what value for `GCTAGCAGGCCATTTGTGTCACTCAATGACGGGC` ?
Reply: -0.895

Ask: What reported PBM binding z-score corresponds to `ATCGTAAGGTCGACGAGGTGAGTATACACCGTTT` on VDR homodimer (NR concentration 270 nM)?
Reply: 1.63

Ask: Query the reported PBM binding z-score for VDR homodimer (NR concentration 270 nM); item: `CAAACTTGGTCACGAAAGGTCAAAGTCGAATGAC`
Reply: 3.11

Ask: Missing value: PBM binding z-score, VDR homodimer (NR concentration 270 nM), entry `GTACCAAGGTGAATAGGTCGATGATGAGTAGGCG` . Fill in?
Reply: 0.182

Ask: Param readout= PBM binding z-score; system= VDR homodimer (NR concentration 270 nM); entry= `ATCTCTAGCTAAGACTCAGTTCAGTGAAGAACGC` ; returns value.
Reply: 1.11

Ask: # query: PBM binding z-score | item `AATACAGGGTCACTAGGCAAGAGTAGGTACGAAT` | system: VDR homodimer (NR concentration 270 nM)
Reply: 2.42

Ask: Give recorded PBM binding z-score with VDR homodimer (NR concentration 270 nM) for the following sequence: `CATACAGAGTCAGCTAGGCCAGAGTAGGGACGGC`
Reply: -0.481

Ask: Recall the recorded PBM binding z-score for `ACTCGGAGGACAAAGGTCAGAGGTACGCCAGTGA` with VDR homodimer (NR concentration 270 nM) and state it.
Reply: 1.68
